Each recorded value in this set is attributed to the supplement of paper PMC10126150.

# System: ATP;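 further: ATP exposure 15 min at 22 °C before imaging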
# Procedure summary: switch fluorescence ratio, 500 uM ATP over buffer (Cy3 cluster intensity, sum of 5 cycles each) (fold (ratio)); higher = stronger signal-on switching upon ATP binding; sequences stand for … in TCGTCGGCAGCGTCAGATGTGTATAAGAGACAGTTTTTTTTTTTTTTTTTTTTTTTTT…TC
# Assay setup: aptamer strand: ATP DNA aptamer (quencher-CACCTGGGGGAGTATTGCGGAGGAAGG + anchor), 100 nM annealed; ATP concentration: 500 uM
Value type: switch fluorescence ratio

Sequence input: TTGTGACGGG
switch fluorescence ratio: 1
--
Sequence input: TATGATATTA
switch fluorescence ratio: 0.991
--
Sequence input: TTCGATGGAA
switch fluorescence ratio: 1.06

# return switch fluorescence ratio for each item in the list
1. AATTGTTTAG
2. TTGAAGTCGT

1: 0.982; 2: 0.988
